- System: MDA-MB-231 breast
- Method: NCI tumour cell line growth inhibition, 48 h
Where a SMILES comes first, the peptide text is derived from it. Bridges are numbered along the chain shown (N, C = ends). Roman numbers before positions name the chains, in order. [ ]: non-standard residue; d: D form. The star is where a group is joined. Heptadecanoyl = CCCCCCCCCCCCCCCCC(=O)*; Phg = N[CH](C(=O)O)c1ccccc1

Compound	GI50
O=C(Nc1cc(Cl)cc(Cl)c1)c1ccc(NC2=C(Cl)C(=O)N(Cc3ccccc3)C2=O)cc1	5740 nM
CCOC(=O)C1=C(N)Oc2cc(OC)ccc2C1c1ccc(F)c(F)c1 (stereo unspecified)	2480 nM
C[C@H]1[C@H](C)CC[C@]2(C(=O)O)CC[C@]3(C)C(=CC[C@@H]4[C@@]5(C)CC[C@H](OC(=O)/C=C\c6ccc(O)cc6)C(C)(C)[C@@H]5CC[C@]43C)[C@H]12	2550 nM
COc1ccc(/C=C/C(=O)c2ccc(NC(=O)CSc3nnc(-c4cc(OC)c(OC)c(OC)c4)o3)cc2)cc1	1820 nM
N=C(N)c1ccc(-c2ccc(-c3ccco3)o2)cc1F	1600 nM
CCCCCCCCCCCCCCCCC(=O)N1CCCC1C(=O)NCC(=O)NC(C(=O)N1CCCC1C(=O)NC(CO)C(=O)NC(Cc1ccc(O)cc1)C(=O)NC(CCCCNC(=O)C1CCCN1C(=O)C(CCCCN)NC(=O)C(CCCCN)NC(=O)C(CCCCN)NC(=O)C(CCCNC(=N)N)NC(=O)C(CCCCN)NC(=O)C(N)C(C)C)C(=O)NC(CC(C)C)C(=O)NC(CCCNC(=N)N)C(=O)N1CCCC1C(=O)NCC(N)=O)c1ccccc1 (stereo unspecified) (I: Heptadecanoyl-PG[Phg]PSYKLRPG-NH2 / II: H-VKRKKKP; amide I:7-II:C; configuration not given here)	17700 nM

---

- System: OVCAR-8 ovarian
- Method: NCI tumour cell line growth inhibition, 48 h
Where a SMILES comes first, the peptide text is derived from it. Bridges are numbered along the chain shown (N, C = ends). Roman numbers before positions name the chains, in order. [ ]: non-standard residue; d: D form. The star is where a group is joined. Heptadecanoyl = CCCCCCCCCCCCCCCCC(=O)*; Phg = N[CH](C(=O)O)c1ccccc1
TGI overview

Compound	TGI
COc1ccc2c(c1)N(CCO)C1=C(C(=O)OC1)C2c1cccc(Br)c1 (stereo not given)	13.9 µM
COC(=O)C1CCc2nnc(-c3cccnc3)n21 (stereo not given)	> 100 µM
CCCCCCCCCCCCCCCCC(=O)N1CCCC1C(=O)NCC(=O)NC(C(=O)N1CCCC1C(=O)NC(CO)C(=O)NC(Cc1ccc(O)cc1)C(=O)NC(CCCCNC(=O)C1CCCN1C(=O)C(CCCCN)NC(=O)C(CCCCN)NC(=O)C(CCCCN)NC(=O)C(CCCNC(=N)N)NC(=O)C(CCCCN)NC(=O)C(N)C(C)C)C(=O)NC(CC(C)C)C(=O)NC(CCCNC(=N)N)C(=O)N1CCCC1C(=O)NCC(N)=O)c1ccccc1 (stereo not given) (I: Heptadecanoyl-PG[Phg]PSYKLRPG-NH2 / II: H-VKRKKKP; amide I:7-II:C; configuration not given here)	84.6 µM
C=C1CCC2C(C)(CO)C(O)CCC2(C)C1CC(O)C1=CCOC1=O (stereo not given)	> 100 µM
C/C(=C\[C@H]1C[C@@H]([C@@H]2CC[C@]34C[C@]23C=C[C@@H]2[C@@]3(C)CC=C5C[C@@H](c6ccccc6)OC[C@]5(C)[C@@H]3C[C@@H](O)[C@]24C)C(=O)O1)CO	> 100 µM
